The origin of these recorded values is patent US20260028354A1.

# system.under.test: ER in MCF-7 cells (Homo sapiens (Human), UniProt P03372)
# Sequence (P03372 whole entry): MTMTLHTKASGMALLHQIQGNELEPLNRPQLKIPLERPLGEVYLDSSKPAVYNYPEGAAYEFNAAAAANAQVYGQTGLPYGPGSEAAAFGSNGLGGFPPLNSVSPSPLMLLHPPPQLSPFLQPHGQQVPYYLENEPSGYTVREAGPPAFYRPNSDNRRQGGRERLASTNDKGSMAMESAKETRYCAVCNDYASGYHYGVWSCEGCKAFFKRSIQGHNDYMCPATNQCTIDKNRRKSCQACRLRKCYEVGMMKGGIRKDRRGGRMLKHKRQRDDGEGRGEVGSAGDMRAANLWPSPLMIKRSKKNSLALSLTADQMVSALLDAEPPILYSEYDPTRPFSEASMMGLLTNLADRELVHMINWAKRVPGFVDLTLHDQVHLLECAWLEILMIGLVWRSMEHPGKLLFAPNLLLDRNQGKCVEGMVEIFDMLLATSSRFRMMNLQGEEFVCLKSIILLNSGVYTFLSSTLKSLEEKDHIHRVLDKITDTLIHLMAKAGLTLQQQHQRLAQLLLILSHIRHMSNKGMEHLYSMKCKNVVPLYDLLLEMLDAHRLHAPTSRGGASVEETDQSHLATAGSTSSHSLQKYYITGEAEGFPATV
# protocol.details: In-cell Western (ICW) ER degradation assay in MCF-7 cells
# Type: cell-based
# condition.details: MCF-7, ER degradation, 16 hrs treatment; read-out: MCF7 DC50
parameter.measured: DC50

>>> result("COc1cc(N2CC3(CCC(CN4CCN5c6cc7c(cc6OC[C@@H]5C4)C(=O)N([C@H]4CCC(=O)NC4=O)C7)CC3)C2)c(F)cc1[C@H]1c2ccc(O)cc2CC[C@H]1c1ccccc1 [Compound A169]")
"10 to 100 nM"
>>> result("COc1cc(N2CCC3(CC[C@H](CN4CCC5(CC4)COc4c5cc(C)c5c4CN([C@H]4CCC(=O)NC4=O)C5=O)CO3)CC2)c(F)cc1[C@@H]1c2ccc(O)cc2CC[C@@H]1c1ccccc1 [Compound A230]")
"< 1 nM"
>>> result("O=C1CC[C@H](N2Cc3cc4c(cc3C2=O)OCC42CCN(CC3CCN(c4ccc([C@@H]5c6ccc(O)cc6CC[C@@H]5c5ccccc5)cc4)CC3)CC2)C(=O)N1 [Compound A186]")
"< 1 nM"
>>> result("COc1cc(N2CCC3(CC2)CC(CN2CCN4c5ccc6c(c5OC[C@H]4C2)CN([C@H]2CCC(=O)NC2=O)C6=O)C3)ccc1[C@H]1c2ccc(O)cc2CC[C@H]1c1ccccc1 (single isomer, unassigned) [Compound A9]")
"1 to 10 nM"
>>> result("COC1(CCN2CCN3c4ccc5c(c4OC[C@H]3C2)CN([C@H]2CCC(=O)NC2=O)C5=O)CCN(c2ccc([C@@H]3c4ccc(O)cc4CC[C@@H]3c3ccccc3)cc2)CC1 [Compound A192]")
"< 1 nM"
>>> result("COc1cc(N2CCC3(CC2)CC(CN2CCC4(CC2)COc2c4ccc4c2CN([C@H]2CCC(=O)NC2=O)C4=O)CO3)ccc1[C@@H]1c2ccc(O)cc2CC[C@@H]1c1ccccc1 (stereo partly shown) [Compound A55]")
"10 to 100 nM"
>>> result("COc1cc(N2CCC(CN3CC[C@@]4(c5ccc(N[C@@H]6CCC(=O)NC6=O)cc5)C(C3)C4(F)F)CC2)ccc1[C@@H]1c2ccc(O)cc2CC[C@@H]1c1ccccc1 (mixture of isomers) [Compound A88]")
"1 to 10 nM"
>>> result("O=C1CCC(NC(=O)c2ccc3c(n2)OC[C@H]2CN(CC4CCN(c5ccc([C@H]6c7ccc(O)cc7CC[C@H]6c6ccccc6)cc5)CC4)CCN32)C(=O)N1 (stereo in doubt) [Compound A4]")
"1 to 10 nM"
>>> result("COc1cc(N2CCC3(CC2)CC(CN2CCN4c5ccc6c(c5OC[C@H]4C2)CN([C@H]2CCC(=O)NC2=O)C6=O)CO3)ccc1[C@@H]1c2ccc(O)cc2CC[C@@H]1c1ccccc1 (stereo partly shown) [Compound A53]")
"10 to 100 nM"
>>> result("O=C1CCC(NC(=O)c2ccc(N3CCN(CC4CCN(c5ccc([C@@H]6c7ccc(O)cc7CC[C@@H]6c6ccccc6)cc5)CC4)CC3)cn2)C(=O)N1 (stereo partly shown) [Compound A58]")
"< 1 nM"
>>> result("COc1cc(N2CCC3(CC2)CC(CN2CCC(c4ccc(N[C@@H]5CCC(=O)NC5=O)cc4)CC2)C3)ccc1[C@@H]1c2ccc(O)cc2CC[C@@H]1c1ccccc1 (single isomer, unassigned) [Compound A110]")
"< 1 nM"
>>> result("COc1cc(N2CCC(CN3CC[C@@]4(c5ccc(N[C@H]6CCC(=O)NC6=O)cc5)C(C3)C4(F)F)CC2)ccc1[C@@H]1c2ccc(O)cc2CC[C@@H]1c1ccccc1 (stereo partly shown) [Compound A92]")
"< 1 nM"
>>> result("O=C1CC[C@H](N2Cc3cc4c(cc3C2=O)OC[C@@H]2CN(CC3CC5(CCN(c6ccc([C@@H]7c8ccc(O)cc8CC[C@@H]7c7ccccc7)cc6F)CC5)C3)CCN42)C(=O)N1 (single isomer, unassigned) [Compound A150]")
"10 to 100 nM"
>>> result("O=C1CC[C@H](N2Cc3c(ccc4c3OC[C@H]3CN(CC5COC6(CCN(c7ccc([C@H]8c9ccc(O)cc9CC[C@H]8c8ccccc8)cn7)CC6)C5)CCN43)C2=O)C(=O)N1 (single isomer, unassigned) [Compound A137]")
"1 to 10 nM"
>>> result("COc1cc(N2CCC3(CC2)CC(CN2CCC4(CC2)COc2cc5c(cc24)CN([C@H]2CCC(=O)NC2=O)C5=O)C3)ccc1[C@@H]1c2ccc(O)cc2CC[C@@H]1c1ccccc1 [Compound A162]")
"< 1 nM"
>>> result("COc1cc(N2CCC3(CC2)CC(CN2CCC4(CC2)COc2c4cc(OC)c4c2CN([C@H]2CCC(=O)NC2=O)C4=O)C3)c(F)cc1[C@@H]1c2ccc(O)cc2CC[C@@H]1c1ccccc1 [Compound A222]")
"< 1 nM"
>>> result("O=C1CCC(Nc2ccc(C34CCN(C[C@@H]5COC6(CCN(c7ccc([C@@H]8c9ccc(O)cc9CC[C@@H]8c8ccccc8)cc7)CC6)C5)CC3C4(F)F)cc2)C(=O)N1 (stereo partly shown) [Compound A45]")
"> 100 nM"
>>> result("O=C1CC[C@H](N2Cc3c(ccc4c3OC[C@H]3CN(CC5COC6(C5)CN(c5ccc([C@@H]7c8ccc(O)cc8CC[C@@H]7c7ccccc7)cc5)C6)CCN43)C2=O)C(=O)N1 (single isomer, unassigned) [Compound A7]")
"< 1 nM"
>>> result("O=C1CC[C@H](N2Cc3c(ccc4c3OC[C@H]3CN(CC5CCC6(CC5)CN(c5ccc([C@@H]7c8ccc(O)cc8CC[C@@H]7c7ccccc7)cc5F)C6)CCN43)C2=O)C(=O)N1 (single isomer, unassigned) [Compound A152]")
"1 to 10 nM"
